Readings of inhibition at 1 µM for the listed compounds
Tested on: KB (human mouth carcinoma)
Test: In vitro cytotoxicity
Format: cell-based
Details: KB, 10^−6 M, read-out: % of cellular growth inhibition (converted)
assay_readout: inhibition at 1 µM

[[record]]
compound = "O=C(C(=O)N1CCOCC1c1c[nH]c2ccccc12)c1c[nH]c2ccccc12 (stereo not shown)"
result = "0%"

[[record]]
compound = "CC(C)(C)OC(=O)NCC(NC(=O)C(=O)c1c[nH]c2cc(Br)ccc12)c1c[nH]c2ccccc12 (stereo not shown)"
result = "4%"

[[record]]
compound = "CC(C)(C)OC(=O)NCC(NC(=O)C(=O)c1c[nH]c2ccccc12)c1c[nH]c2ccccc12 (stereo not shown)"
result = "33%"

[[record]]
compound = "O=C(C(=O)N1CCCCC1c1c[nH]c2ccc(Br)cc12)c1c[nH]c2ccc(Br)cc12 (stereo not shown)"
result = "0%"

[[record]]
compound = "O=C(C(=O)N1CCOCC1c1c[nH]c2ccc(Br)cc12)c1c[nH]c2ccc(Br)cc12 (stereo not shown)"
result = "0%"

[[record]]
compound = "CC(C)(C)OC(=O)N1CCN(C(=O)C(=O)c2c[nH]c3ccccc23)C(c2c[nH]c3ccccc23)C1 (stereo not shown)"
result = "0%"

[[record]]
compound = "CC(C)(C)OC(=O)NCC(NC(=O)C(=O)c1c[nH]c2ccc(Br)cc12)c1c[nH]c2ccc(Br)cc12 (stereo not shown)"
result = "0%"

[[record]]
compound = "CC(C)(C)OC(=O)N1CCN(C(=O)C(=O)c2c[nH]c3ccc(Br)cc23)C(c2c[nH]c3ccc(Br)cc23)C1 (stereo not shown)"
result = "0%"

[[record]]
compound = "CC(NC(=O)C(=O)c1c[nH]c2ccc(Br)cc12)c1c[nH]c2ccc(Br)cc12 (stereo not shown)"
result = "0%"

[[record]]
compound = "O=C(C(=O)N1CCCCC1c1c[nH]c2ccccc12)c1c[nH]c2ccccc12 (stereo not shown)"
result = "0%"


###

System: MRC5 (human lung fibroblast)
Test: In vitro cytotoxicity
Format: cell-based
Conditions: MRC5, 10^−6 M, read-out: % of cellular growth inhibition (converted)
assay_readout: inhibition at 1 µM (%)

[[record]]
compound = "CC(C)(C)OC(=O)NCC(NC(=O)C(=O)c1c[nH]c2ccc(Br)cc12)c1c[nH]c2ccc(Br)cc12 (stereo not shown)"
assay_readout = "inhibition at 1 µM"
units_label = "%"
numeric_result = 0

[[record]]
compound = "CC(C)(C)OC(=O)N1CCN(C(=O)C(=O)c2c[nH]c3ccccc23)C(c2c[nH]c3ccccc23)C1 (stereo not shown)"
assay_readout = "inhibition at 1 µM"
units_label = "%"
numeric_result = 0

[[record]]
compound = "CC(C)(C)OC(=O)N1CCN(C(=O)C(=O)c2c[nH]c3ccc(Br)cc23)C(c2c[nH]c3ccc(Br)cc23)C1 (stereo not shown)"
assay_readout = "inhibition at 1 µM"
units_label = "%"
numeric_result = 0

[[record]]
compound = "O=C(C(=O)N1CCOCC1c1c[nH]c2ccccc12)c1c[nH]c2ccccc12 (stereo not shown)"
assay_readout = "inhibition at 1 µM"
units_label = "%"
numeric_result = 0

[[record]]
compound = "O=C(C(=O)N1CCCCC1c1c[nH]c2ccc(Br)cc12)c1c[nH]c2ccc(Br)cc12 (stereo not shown)"
assay_readout = "inhibition at 1 µM"
units_label = "%"
numeric_result = 0

[[record]]
compound = "CC(C)(C)OC(=O)NCC(NC(=O)C(=O)c1c[nH]c2cc(Br)ccc12)c1c[nH]c2ccccc12 (stereo not shown)"
assay_readout = "inhibition at 1 µM"
units_label = "%"
numeric_result = 0

[[record]]
compound = "O=C(C(=O)N1CCOCC1c1c[nH]c2ccc(Br)cc12)c1c[nH]c2ccc(Br)cc12 (stereo not shown)"
assay_readout = "inhibition at 1 µM"
units_label = "%"
numeric_result = 0

